Data origin, for the record: patent US9115347B2

Test system: Clostridium difficile, ATCC No. 43255
Protocol Details: Cell morphological characteristics in cultures with additive
Format: cell-based
Test Context: SYS medium + 6 g/L; 12 hours/24 hours
Assay Metric: cell morphological characteristics

O[C@H]1[C@H](O)[C@@H](O)[C@H](O)[C@@H](O)[C@H]1O
Normal
OC[C@H]1O[C@H](O[C@H]2[C@H](O)[C@@H](O)[C@H](O)O[C@@H]2CO)[C@H](O)[C@@H](O)[C@@H]1O [D(+)Maltose Monohydrate]
Normal
OC[C@H]1O[C@@](CO)(O[C@H]2O[C@H](CO)[C@@H](O)[C@H](O)[C@H]2O)[C@@H](O)[C@@H]1O
Normal
